- tested.system: cyclin B/CDK1 enzyme (Homo sapiens, UniProt P06493)
- Construct: purchased New England BioLabs; host or cells: Sf9 insect cells, recombinant baculovirus
- Sequence (P06493 whole entry): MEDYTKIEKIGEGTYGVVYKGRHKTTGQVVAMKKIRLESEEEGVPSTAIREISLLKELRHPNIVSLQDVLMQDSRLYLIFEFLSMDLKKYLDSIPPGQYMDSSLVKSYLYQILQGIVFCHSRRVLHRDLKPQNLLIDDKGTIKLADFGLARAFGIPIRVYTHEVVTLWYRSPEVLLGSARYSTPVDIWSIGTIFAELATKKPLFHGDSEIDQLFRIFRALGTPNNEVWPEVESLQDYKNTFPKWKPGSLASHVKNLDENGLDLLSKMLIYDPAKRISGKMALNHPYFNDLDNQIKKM
- Sequence (P14635 whole entry partner): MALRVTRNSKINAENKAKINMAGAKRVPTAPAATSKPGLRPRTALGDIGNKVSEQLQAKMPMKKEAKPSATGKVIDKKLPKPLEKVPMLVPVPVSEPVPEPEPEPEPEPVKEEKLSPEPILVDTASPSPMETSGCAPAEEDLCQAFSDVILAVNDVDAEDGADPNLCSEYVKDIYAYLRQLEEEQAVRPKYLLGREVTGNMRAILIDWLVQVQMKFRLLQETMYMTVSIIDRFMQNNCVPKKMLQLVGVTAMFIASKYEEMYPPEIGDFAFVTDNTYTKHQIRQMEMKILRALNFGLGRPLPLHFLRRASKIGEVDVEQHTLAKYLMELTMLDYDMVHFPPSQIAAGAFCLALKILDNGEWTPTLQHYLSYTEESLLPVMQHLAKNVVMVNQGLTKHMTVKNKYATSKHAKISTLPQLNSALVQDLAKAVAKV
- measurement.notes: CDK1 ELISA kinase assay (phospho-Rb ser 795 detection)
- Type: biochemical
- experimental.conditions: In Vitro Enzyme Assay, cyclin B/CDK1, read-out: CDK1 IC50
Exercise: state measured pIC50 for each of the molecules provided.
Give bare numbers, as −log10 of the molar value.

molecule | pIC50
O=C1NC(=O)c2ccc(-c3ccc(OC(F)(F)F)cc3)cc2C1=CNCc1ccc(O)c(O)c1 [Example 818] | 4.44
CCCOc1cnc(CN/C=C2\C(=O)NC(=O)c3ccc(-c4ccco4)cc32)cc1O [Example 502] | 4.69
Nc1cccc(-c2ccc3c(c2)C(=CNCc2ccc(O)c(O)c2)C(=O)NC3=O)c1 [Example 821] | 4.62

Go through the list and state pIC50 for each entry.
1. O=C1NC(=O)c2ccc(-c3ccc[nH]3)cc2C1=CNCc1ccc(O)c(O)c1 [Example 647]
2. O=C1NC(=O)c2ccccc2C1=CNc1ccc(O)c2ncccc12 [Example 569]

1: 5.07; 2: 4.46

###

- tested.system: cyclin B/CDK1 enzyme (Homo sapiens, UniProt P06493)
- Construct: purchased New England BioLabs; host or cells: Sf9 insect cells, recombinant baculovirus
- measurement.notes: CDK1 ELISA kinase assay (phospho-Rb ser 795 detection)
- Assay type: biochemical
- experimental.conditions: In Vitro Enzyme Assays, read-out: CDK1 IC50
recorded.metric: pIC50
One number for each entry, as −log10 of the molar value.

Worked set:
compound | tested.system | pIC50
CC(CO)N1CCN(c2ccc(N/C=C3\C(=O)NC(=O)c4ccc(I)cc43)cc2)CC1 (stereo not shown) | cyclin B/CDK1 enzyme (Homo sapiens, UniProt P06493) | 4.67
CN1CCN(c2ccc(N/C=C3\C(=O)NC(=O)c4ccc(Br)cc43)nc2)CC1 | cyclin B/CDK1 enzyme (Homo sapiens, UniProt P06493) | 4.80

Query: pIC50; subject: `O=C1NC(=O)c2ccc(Br)cc2/C1=C/NCCCCO`
4.42

###

- tested.system: cyclin D1/cdk 4 enzyme (Homo sapiens, UniProt P11802)
- Construct: made in house; host or cells: Sf9 insect cells, recombinant baculovirus
- Sequence (P11802 whole entry, species assumed): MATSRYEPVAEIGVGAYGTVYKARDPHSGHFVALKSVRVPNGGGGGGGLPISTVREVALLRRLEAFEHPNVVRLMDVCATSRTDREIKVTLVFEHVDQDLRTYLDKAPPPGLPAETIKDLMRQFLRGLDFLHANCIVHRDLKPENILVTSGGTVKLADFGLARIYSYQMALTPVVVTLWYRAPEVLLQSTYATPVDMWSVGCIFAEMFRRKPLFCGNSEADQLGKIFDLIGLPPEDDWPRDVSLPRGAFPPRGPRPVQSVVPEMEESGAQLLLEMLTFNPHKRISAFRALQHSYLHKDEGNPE
- Sequence (P24385 whole entry partner, species assumed): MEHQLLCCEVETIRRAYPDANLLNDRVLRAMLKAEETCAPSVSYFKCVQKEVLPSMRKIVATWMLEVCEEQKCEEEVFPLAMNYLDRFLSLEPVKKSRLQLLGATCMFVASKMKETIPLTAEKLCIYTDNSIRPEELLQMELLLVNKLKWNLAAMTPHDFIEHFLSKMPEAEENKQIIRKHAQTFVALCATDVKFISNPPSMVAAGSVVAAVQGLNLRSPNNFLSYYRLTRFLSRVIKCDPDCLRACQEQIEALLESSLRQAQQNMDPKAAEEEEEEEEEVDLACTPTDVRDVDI
- measurement.notes: CDK4 ELISA kinase assay (phospho-Rb ser 795 detection)
- Format: biochemical
- experimental.conditions: In Vitro Enzyme Assays, 200 μM ATP, read-out: CDK4 IC50
Exercise: state measured IC50 for each of the compounds provided.
Answers are plain numbers, in nM.

Worked set:
compound | IC50 / nM
O=C1NC(=O)c2ccc(Br)cc2/C1=C/Nc1ccc(CN2CCC[C@H]2CO)cc1 (stereo in doubt) | 750
CN1CCN(c2ccc(N/C=C3\C(=O)NC(=O)c4ccc(-c5ccoc5)cc43)cc2)CC1 | 220
O=C1NC(=O)c2ccc(I)cc2/C1=C/Nc1ccc(N2CCNCC2)cc1 | 650
C=CC(=O)Nc1cnc(CN/C=C2\C(=O)NC(=O)c3ccc(I)cc32)cc1O | 130

API: the following record is the query input.
Give cyclin D1/cdk 4 enzyme (Homo sapiens, UniProt P11802) IC50 for `COc1ccc(CN/C=C2\C(=O)NC(=O)c3ccc(-c4cn[nH]c4)cc32)cc1O`
5

###

Exercise: state measured IC50 for each of the compounds provided.
- Tested on: HCT-116
- measurement.notes: Cytotoxicity assay (SRB), HCT-116
- Type: cell-based
- experimental.conditions: Homo sapiens, HCT-116, 72 h, HCT116 cells, 3 days, SRB; read-out: In Vitro Cellular Activity IC50 HCT116

compound | IC50
N#CCc1ccc(NC=C2C(=O)NC(=O)c3ccc(-c4ccccc4Cl)cc32)cc1 [Example 714] | > 50 µM
COc1ccc(-c2ccc3c(c2)C(=CNc2ccc(CC#N)cc2)C(=O)NC3=O)cc1 [Example 701] | > 50 µM
NS(=O)(=O)c1ccc(CNC=C2C(=O)NC(=O)c3ccc(C=Cc4ccccn4)cc32)cc1 [Example 652] | > 50 µM
CN1CCN(c2ccc(N/C=C3\C(=O)NC(=O)c4ccc(-c5cccn5C)cc43)cn2)CC1 [Example 474] | 3.5 µM
O=C1NC(=O)c2ccc(I)cc2/C1=C/Nc1ccc(N2CCN(CCO)CC2)cc1 [Example 401] | 2.6 µM

Give HCT-116 IC50 for COc1ccc(NC=C2C(=O)NCc3cc(-c4cc[nH]c4)ccc32)cc1 [Example 850]
16 µM

Reference source for all entries: patent US7713994B2
